Test system: LOC_OS03G50450-cb001;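 also: purified Escherichia coli-expressed rice kinase domain construct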
Experiment: thermal shift delta Tm vs DMSO control; higher = stronger stabilization (binding)
Conditions: 12.5 µM; protein concentration 2 µM
Output class 1 for thermal shift delta Tm not less than 0.3 °C; output class 0 otherwise.

## Input Entry O=C1NC(=O)C(c2ccccc2[N+](=O)[O-])=C1Nc1ccc(O)c(Cl)c1 : is its thermal shift delta Tm no less than 0.3 °C?
## Output class 0

## Input Also COc1cc2ncnc(Nc3ccc(O)c(Br)c3)c2cc1OC , if possible.
## Output class 0

## Input Also COc1cc(CCc2cc(NC(=O)c3ccc(N4CC(C)NC(C)C4)cc3)n[nH]2)cc(OC)c1 (configuration not stated) , if possible.
## Output class 0

## Input Also CN1CCN(Cc2ccc(-c3cnc4[nH]cc(-c5ccc6[nH]ccc6c5)c4c3)cc2)CC1 , if possible.
## Output class 1

Next, consider the following molecule.
## Input Entry CC(C)NC(=O)C1CCC(n2c(NC(=O)c3ccc(F)cc3)nc3ccc(CN4CCC(C(C)(C)O)CC4)cc32)CC1 (configuration not stated) [Belizatinib (TSR-011)] : is its thermal shift delta Tm no less than 0.3 °C?
## Output class 1

The values you see were collected from the supplement of paper PMC9694430.
